# ASSAYED SYSTEM: mIDO1 (Mus musculus, UniProt P28776)
# Construct: Full-length recombinant human and mouse IDO1 were expressed in Escherichia coli with a hexahistidine tag at the N-terminus; hexahistidine (N)
# Sequence (P28776 whole entry): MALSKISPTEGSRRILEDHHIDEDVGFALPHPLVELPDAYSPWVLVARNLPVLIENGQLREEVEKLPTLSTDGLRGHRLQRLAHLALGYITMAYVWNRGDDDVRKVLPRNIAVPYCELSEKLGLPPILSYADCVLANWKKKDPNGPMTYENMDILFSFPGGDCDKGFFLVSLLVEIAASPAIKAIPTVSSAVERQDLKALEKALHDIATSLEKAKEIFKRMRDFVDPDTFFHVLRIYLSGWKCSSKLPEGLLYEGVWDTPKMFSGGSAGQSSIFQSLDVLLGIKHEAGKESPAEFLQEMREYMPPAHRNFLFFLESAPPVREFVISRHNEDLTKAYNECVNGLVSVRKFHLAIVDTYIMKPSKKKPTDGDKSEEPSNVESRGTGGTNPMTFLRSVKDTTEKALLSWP
# ASSAY TEXT: mouse IDO1 biochemical assay (NFK GreenScreen)
QUANTITY KIND: IC50 (nM)
Your answer is read as nM, so omit the unit and give the number.

Find the recorded IC50 belonging to "O=C1CN(C(=O)c2c(F)cccc2F)[C@H](c2cccc(Br)c2)N1O" and report it. 93

---

Recorded IC50, one value per entry.
# System: IFNγ-stimulated adherent cell samples isolated from ascites of ovarian cancer patients
# ASSAY TEXT: Trp-catabolizing activity in IFNγ-stimulated ascites cell samples
# Type: cell-based
# TEST SETTINGS: Homo sapiens; IFNγ-stimulated; read-out: IC50 ASC 031
Write the numeric value and append its unit.

{"COMPOUND": "O=C1CN(C(=O)c2c(F)cccc2F)[C@H](c2cccc(Br)c2)N1O [NTRC 3883-0]", "IC50": "271 nM"}

# input for lookup
Find the recorded IC50 belonging to NS(=O)(=O)NCCNc1nonc1C(=NO)Nc1ccc(F)c(Br)c1 [epacadostat, reference compound] and report it. 7.2 nM

---

# ASSAY TEXT: in vivo pharmacokinetics, monkey
# TEST SETTINGS: cynomolgus monkey, plasma, intravenous; monkey, body weight 3.0 kg; read-out: Vss
QUANTITY KIND: Vd (L)
Your answer is read as L, so omit the unit and give the number.

Find the recorded Vd belonging to O=C1CN(C(=O)c2c(F)cccc2F)[C@H](c2cccc(Br)c2)N1O [NTRC 3883-0] and report it. 6.74

---

# ASSAYED SYSTEM: human IDO1 (Homo sapiens)
# Construct: Full-length recombinant human and mouse IDO1 were expressed in Escherichia coli with a hexahistidine tag at the N-terminus; hexahistidine (N); made in house; host or cells: Escherichia coli
# Sequence (P14902 whole entry): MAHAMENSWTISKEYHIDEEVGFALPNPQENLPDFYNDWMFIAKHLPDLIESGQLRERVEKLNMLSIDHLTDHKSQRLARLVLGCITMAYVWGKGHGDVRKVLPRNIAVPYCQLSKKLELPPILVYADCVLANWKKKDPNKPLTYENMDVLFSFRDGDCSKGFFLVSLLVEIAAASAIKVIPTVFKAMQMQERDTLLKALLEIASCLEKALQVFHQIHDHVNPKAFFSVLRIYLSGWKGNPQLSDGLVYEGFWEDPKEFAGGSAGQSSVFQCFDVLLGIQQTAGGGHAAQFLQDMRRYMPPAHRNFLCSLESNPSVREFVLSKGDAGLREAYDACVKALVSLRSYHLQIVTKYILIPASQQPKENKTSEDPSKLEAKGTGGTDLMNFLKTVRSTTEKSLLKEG
# ASSAY TEXT: human IDO1 biochemical assay (NFK GreenScreen)
# TEST SETTINGS: biochemical
QUANTITY KIND: pIC50
# pIC50 is unitless: minus log10 of the molar concentration; print number only

Find the recorded pIC50 belonging to O=C1CN(C(=O)c2ccccc2)C(c2cccc(Br)c2)N1O (stereo not shown) and report it. 5.92

---

# ASSAY TEXT: in vivo pharmacokinetics, monkey
# TEST SETTINGS: cynomolgus monkey, plasma, po; monkey, p.o. versus i.v.; read-out: Bioavailability (F)
# Method: Pharmacokinetic properties of NTRC 3883-0 were determined in plasma following single oral (p.o.) and i.v. administration to male CD-1 mice (n = 6 per treatment group with three mice sampled per time point), Wistar rats (n = 3), cynomolgus monkey (n = 1) and Beagle dogs (n = 3). Formulations were prepared in DMSO, Kolliphor® EL, 5% D-mannitol in Elix water at a volume ratio of 1:1:8 for i.v. administration, and in 0.5% gelatin, 5% D-mannitol in Elix water for p.o. administration. […]
QUANTITY KIND: bioavailability (%)
Your answer is read as %, so omit the unit and give the number.

Find the recorded bioavailability belonging to O=C1CN(C(=O)c2c(F)cccc2F)[C@H](c2cccc(Br)c2)N1O [NTRC 3883-0] and report it. 49

---

# System: unstimulated adherent cell samples isolated from ascites of ovarian cancer patients
# ASSAY TEXT: Trp-catabolizing activity in unstimulated ascites cell samples
# Format: cell-based, human
# TEST SETTINGS: Homo sapiens, mean of samples, read-out: IC50 Mean
QUANTITY KIND: pIC50
# pIC50 is unitless: minus log10 of the molar concentration; print number only

Find the recorded pIC50 belonging to NS(=O)(=O)NCCNc1nonc1C(=NO)Nc1ccc(F)c(Br)c1 [epacadostat, reference compound] and report it. 5.11
